Quick list: ED50 per entry.
Tested on: Plasmodium vinckei petteri
Assay: Antimalarial activity against Plasmodium vinckei petteri 279BY infected peroral dosed Swiss mice (Mus musculus)
Type: functional
Conditions: po
Value type: ED50 (mg/kg)

[
  {
    "Chem smiles": "CCNC(=O)O/N=C(\\C)NCCCCCCCCCCCCN/C(C)=N/OC(=O)NCC",
    "Readout qualifier": ">",
    "Recorded result": 90
  },
  {
    "Chem smiles": "C/C(=N\\O)NCCCCCCCCCCCCN/C(C)=N/O",
    "Readout qualifier": "=",
    "Recorded result": 90
  },
  {
    "Chem smiles": "CO/N=C(\\C)NCCCCCCCCCCCCN/C(C)=N/OC",
    "Readout qualifier": "=",
    "Recorded result": 110
  },
  {
    "Chem smiles": "CC(=N)NCCCCCCCCCCCCNC(C)=N",
    "Readout qualifier": ">",
    "Recorded result": 200
  },
  {
    "Chem smiles": "CC(=O)O/N=C(\\C)NCCCCCCCCCCCCN/C(C)=N/OC(C)=O",
    "Readout qualifier": ">",
    "Recorded result": 90
  },
  {
    "Chem smiles": "C/C(=N\\OC(=O)Nc1ccccc1)NCCCCCCCCCCCCN/C(C)=N/OC(=O)Nc1ccccc1",
    "Readout qualifier": ">",
    "Recorded result": 90
  },
  {
    "Chem smiles": "CCOP(=O)(OCC)O/N=C(\\C)NCCCCCCCCCCCCN/C(C)=N/OP(=O)(OCC)OCC",
    "Readout qualifier": ">",
    "Recorded result": 90
  },
  {
    "Chem smiles": "Cc1noc(=O)n1CCCCCCCCCCCCn1c(C)noc1=O",
    "Readout qualifier": "=",
    "Recorded result": 62
  },
  {
    "Chem smiles": "C/C(=N\\OS(C)(=O)=O)NCCCCCCCCCCCCN/C(C)=N/OS(C)(=O)=O",
    "Readout qualifier": "=",
    "Recorded result": 42
  },
  {
    "Chem smiles": "C/C(=N\\OC(=O)c1ccccc1)NCCCCCCCCCCCCN/C(C)=N/OC(=O)c1ccccc1",
    "Readout qualifier": ">",
    "Recorded result": 90
  }
]
